assay: Organ distribution of regorafenib in rats with or without RT; format: in vivo, Sprague-Dawley rats; details: male, Sprague-Dawley, rat, lung, oral, 16 mg/kg, rat, 4 h after oral administration; RT2 Gy × 1 f'x with regorafenib 16 mg/kg × 1 d (concurrent); read-out: Concentration in lung
reportedMetric: concentration at 4 h (ng/g)

[
  {
    "compound": "CNC(=O)c1cc(Oc2ccc(NC(=O)Nc3ccc(Cl)c(C(F)(F)F)c3)c(F)c2)ccn1 [regorafenib, Regorafenib]",
    "reportedMetric": "concentration at 4 h",
    "obsValue": 290
  }
]

====

Assay: Organ distribution of regorafenib in rats with or without RT
Format: in vivo, Sprague-Dawley rats
Settings: male, Sprague-Dawley, rat, heart, po, 16 mg/kg, rat, 4 h after oral administration; 16 mg/kg p.o. × 3 d, no RT; read-out: Concentration in heart
Protocol: According to the formula used to translate doses from animal to human, human equivalent dose (HED, mg/kg) = animal dose (mg/kg) × animal km/human km, we calculated the daily dose of regorafenib for rats to be 16 (mg/kg/day). The rats were randomly divided into ten groups with six rats in each group. […] The organ samples were homogenized in 50% aqueous acetonitrile (sample weight: volume = 1:5) and centrifuged at 13,000× g, for 10 min, at 4 °C. […] Finally, the filtrate (20 μL) was analyzed by HPLC.
reportedMetric: concentration at 4 h (ng/g)

[
  {
    "smilesCode": "CNC(=O)c1cc(Oc2ccc(NC(=O)Nc3ccc(Cl)c(C(F)(F)F)c3)c(F)c2)ccn1",
    "obsValue": 250
  }
]

Reference source: paper PMC8035703
